These data points were gathered from patent US7056679.

tested on: T1, DGI-2 polypeptide (UniProt Q15004 1-111, limits assumed)
T1 construct: Vector-derived residues or tag of pIVEX2.3 are not described for this construct; also called KIAA0101
T1 sequence (looked up): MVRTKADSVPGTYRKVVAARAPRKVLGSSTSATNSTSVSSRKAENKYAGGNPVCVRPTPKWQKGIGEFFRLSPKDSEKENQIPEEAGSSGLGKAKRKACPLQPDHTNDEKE
assay comment: phage ELISA, 405 nm; DGI-2 coated
This section presents binders with their documented DGI-2 (OD) values.
Numeric only. Scale: OD

binder: RFWSVSYQGGRVMCREWGYCLPIAAAGAPVPYPDPLEPRP (not shown: phage gene III coat protein (pCANTAB5E)) [DGI-2-40F-3-C92]
number: 2.1

The record that follows has no DGI-2 (OD) shown yet.
stdin: What value of measured DGI-2 (OD) is listed for DGI-2-40F-3-B95 (not shown: phage gene III coat protein (pCANTAB5E)) peptide: DYKTCVSQHVHPLFGEYFYHKVTHMSILSPTFRVTSLYGKAAAGAPVPYPDPLEPRP ?
stdout: 1
